target: SIRT6 (Homo sapiens); assay: Sirtuin inhibition assay; type: biochemical
Sequence (Q8N6T7 whole entry): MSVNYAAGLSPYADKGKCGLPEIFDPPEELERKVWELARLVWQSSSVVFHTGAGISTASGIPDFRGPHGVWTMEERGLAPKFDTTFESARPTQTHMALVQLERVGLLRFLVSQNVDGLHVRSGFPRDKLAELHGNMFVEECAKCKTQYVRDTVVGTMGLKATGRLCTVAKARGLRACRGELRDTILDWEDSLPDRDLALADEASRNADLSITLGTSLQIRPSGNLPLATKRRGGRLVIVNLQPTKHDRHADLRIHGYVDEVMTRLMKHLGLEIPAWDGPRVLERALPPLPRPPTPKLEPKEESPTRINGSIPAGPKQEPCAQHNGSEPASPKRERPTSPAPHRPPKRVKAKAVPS
readout.kind: Ki

- CCCC(CCC)C(=O)O: > 5 mM
